Assay: qHTS assay to test for compound auto fluorescence at 535 nm (green) in HepG2 cell free culture (AID 720686); further: on the % scale 0 is the no-effect control and ±100 the full control effect
Details: Cell-free medium, green autofluorescence 485/535 nm; series mostly up to 91.3 µM
Activity calls are given as the source filed them. The call rests on the fitted dose curve; in most records, active means well fitted curve in the direction sought with a large enough effect in the repeat runs; inconclusive means weak or mixed curves; inactive means flat fitted curve, though single readings scatter.
Observation Type: fluorescence, % of fluorescein control

Compound | fluorescence, % of fluorescein control
C=C1c2cccc(O)c2C(O)=C2C(=O)[C@]3(O)C(O)=C(C(N)=O)C(=O)[C@@H](N(C)C)[C@@H]3[C@@H](O)[C@H]12 | -0.0019% [at 18.6 µM] (inactive)
CN1CC(=O)N2[C@H](c3ccc4c(c3)OCO4)c3[nH]c4ccccc4c3C[C@@H]2C1=O | inactive
CC(C)c1nc(CN(C)C(=O)N[C@H](C(=O)N[C@@H](Cc2ccccc2)C[C@H](O)[C@H](Cc2ccccc2)NC(=O)OCc2cncs2)C(C)C)cs1 | inactive
O=C(O)C[C@H](NC(=O)OCc1ccccc1)C(=O)O | inactive
CCC(=O)OC | inactive

Write down fluorescence, % of fluorescein control measured for item "C=C(C)[C@@H]1CCC2=CCC[C@@H](C)[C@]2(C)C1" inactive

Write down fluorescence, % of fluorescein control measured for item "CC(C)(c1ccccc1)c1ccccc1" inactive

Write down fluorescence, % of fluorescein control measured for item "C1C[C@@H]2[C@H]3CC[C@H](C3)[C@@H]2C1" inactive

###

Assay: A CellTox Green Cytotoxicity Assay to monitor cytotoxicity in HepG2 cells - 0 hour (AID 1224882); further: nearly all actives have a fitted effect of over 35% in size; further: potency means the concentration at half of the fitted maximal effect; on Cytotoxicity: on the % scale 0 is the no-effect control and ±100 the full control effect
Conditions: CellTox Green fluorescence; series mostly up to 76.8 µM
The source made the active and inactive calls. Calls come from the whole dose curve; as a rule, active = well fitted activation curve with a large enough effect in the repeat runs; inconclusive = weak or mixed curves; inactive = flat fitted curve, though single readings scatter.
Observation Type: Potency

// known answers, use as guide
Query Smiles | Potency
CCCCN(CCN(CCCC)C(=O)N1CCOCC1)C(=O)N1CCOCC1 | inactive
O=C(O)CCc1nc(-c2ccccc2)c(-c2ccccc2)o1 | inactive
CCOC(=O)c1ccc(C#Cc2ccc3c(c2)C(C)(C)CCS3)nc1 | inactive
CCOC(=O)[C@H](CCc1ccccc1)N[C@@H](C)C(=O)N(CC(=O)O)C1Cc2ccccc2C1 | inactive
CC(C)C[C@H](NC(=O)[C@H](CCc1ccccc1)NC(=O)CN1CCOCC1)C(=O)N[C@@H](Cc1ccccc1)C(=O)N[C@@H](CC(C)C)C(=O)[C@@]1(C)CO1 | inactive

Write down Potency measured for item "O=C(Nc1cccc2c(=O)cc(-c3nn[nH]n3)oc12)c1ccc(OCCCCc2ccccc2)cc1" 26.8 µM (active)

Write down Potency measured for item "COC(=O)CS" inactive

###

Assay: qHTS assay to identify small molecule antagonists of the retinoic acid receptor (RAR) signaling pathway (AID 1159552; further: nearly all actives have a fitted effect of over 50% in size; further: potency means the concentration at half of the fitted maximal effect)
Conditions: C3RL4 RARE luciferase reporter, retinol-stimulated, 6 h; series mostly up to 92.4 µM
Results filed as inconclusive are left out. Activity calls are given as the source filed them. The call rests on the fitted dose curve; in most records, active means well fitted inhibition curve with a large enough effect in the repeat runs; inconclusive means weak or mixed curves, or effect the other way; inactive means no such curve, though single readings can be large or run the other way.
Observation Type: Potency

// known answers, use as guide
Compound | Potency
CCOc1ccc(Cc2nccc3cc(OCC)c(OCC)cc23)cc1OCC | inactive
COc1ncnc(NS(=O)(=O)c2ccc(N)cc2)c1OC | inactive
CC(=O)[C@H]1[C@H](C#N)C[C@H]2[C@@H]3CC=C4C[C@@H](O)CC[C@]4(C)[C@H]3CC[C@@]21C | inactive
CC(=O)N/N=C/c1ccc([N+](=O)[O-])o1 | 29.8 µM (active)
CCC(C)COC(=O)CC(C)C (configuration not stated) | inactive

Write down Potency measured for item "CC(C)(C)C(=O)C(=O)O" inactive

Write down Potency measured for item "C=C(C)C(=O)OCCCCCCCCCCCCC" inactive

Write down Potency measured for item "CCCCCCCCCI" inactive

Write down Potency measured for item CC(C)C(O)(c1ccc(OC(F)(F)F)cc1)c1cncnc1 (configuration not stated) inactive

Write down Potency measured for item "Cc1cccc(O)c1N" inactive

Write down Potency measured for item CC1(C)S[C@@H]2[C@H](NC(=O)C(c3ccccc3)S(=O)(=O)O)C(=O)N2[C@H]1C(=O)O (some centres not stated) inactive

Write down Potency measured for item "C[C@@H](O[C@H]1OCCN(Cc2n[nH]c(=O)[nH]2)[C@H]1c1ccc(F)cc1)c1cc(C(F)(F)F)cc(C(F)(F)F)c1" 26.6 µM (active)

###

Assay: qHTS assay to identify small molecule antagonists of the estrogen receptor alpha (ER-alpha) signaling pathway using the BG1 cell line (AID 743080);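 further: BG1 cells stimulated with 17beta-estradiol alongside compound; nearly all actives have a fitted effect of over 25% in size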
Conditions: BG1Luc4E2 ERE-luciferase antagonist mode, luminescence; series mostly up to 70.3 µM
Inconclusive results are not listed. The source made the active and inactive calls. The call rests on the fitted dose curve.
Tick one outcome: active, inactive

// below: answered compounds
Compound | Label Value
O[C@@H]1CO[C@H]2[C@@H]1OC[C@@H]2O | inactive
C1COC1 | inactive
OCCOCC#CCOCCO | inactive
CC(C)(C)C(=O)C(=O)O | inactive
Cc1ccc(CO)cc1 | inactive
CCCCN1CCCC1C(=O)Nc1c(C)cc(C)cc1C (stereo unspecified) | inactive
C=C1C[C@@]23CC[C@H]4[C@@](C)(CCC[C@@]4(C)C(=O)O[C@@H]4O[C@H](CO)[C@@H](O)[C@H](O)[C@H]4O)[C@@H]2CC[C@]1(O[C@@H]1O[C@H](CO)[C@@H](O)[C@H](O[C@@H]2O[C@H](CO)[C@@H](O)[C@H](O)[C@H]2O)[C@H]1O[C@@H]1O[C@H](CO)[C@@H](O)[C@H](O)[C@H]1O)C3 | inactive
CCCCCCC(C)(C)C(=O)O | inactive

Look up the recorded call for "N#[N+]c1ccc2c(S(=O)(=O)[O-])cccc2c1O" in this test. inactive

Look up the recorded call for "OCCN1CCN(CCCN2c3ccccc3Sc3ccc(Cl)cc32)CC1" in this test. inactive

Look up the recorded call for COc1cc(N)c(Cl)cc1C(=O)NC1CCN(CCCOc2ccc(F)cc2)CC1OC (stereo unspecified) in this test. inactive

Look up the recorded call for CC1(C)S[C@@H]2[C@H](NC(=O)C(c3ccccc3)S(=O)(=O)O)C(=O)N2[C@H]1C(=O)O (stereo partly specified) in this test. inactive

Look up the recorded call for "CCN(CC)CCNC(=O)COc1ccc(OC)cc1" in this test. inactive

Look up the recorded call for CCCCCC[C@@H](O)C/C=C\CCCCCCCC(=O)OCC(O)CO (stereo partly specified) in this test. inactive

Look up the recorded call for "C[C@@H]1CC(=O)NN=C1c1ccc(NN=C(C#N)C#N)cc1" in this test. inactive

Look up the recorded call for "C=C1c2cccc(O)c2C(O)=C2C(=O)[C@]3(O)C(O)=C(C(N)=O)C(=O)[C@@H](N(C)C)[C@@H]3[C@@H](O)[C@H]12" in this test. inactive

Look up the recorded call for "O=C1Cc2ccccc2N1c1c(Cl)cccc1Cl" in this test. active

Look up the recorded call for "C[C@@H](O)[C@H]1C(=O)N2C(C(=O)O)=C([C@H]3CCCO3)S[C@H]12" in this test. inactive

Look up the recorded call for "C[C@H]1c2cccc(O)c2C(O)=C2C(=O)[C@]3(O)C(O)=C(C(N)=O)C(=O)[C@@H](N(C)C)[C@@H]3[C@@H](O)[C@@H]21" in this test. inactive

Look up the recorded call for "O=C(O)C[C@H](NC(=O)OCc1ccccc1)C(=O)O" in this test. inactive

Look up the recorded call for "c1ccc(C[n+]2cccc3ccccc32)cc1" in this test. active

###

Assay: qHTS assay to test for compound auto fluorescence at 460 nm (blue) in HEK293 cell free culture (AID 720681); further: on the % scale 0 is the no-effect control and ±100 the full control effect
Settings: cell-free medium, autofluorescence 405/460 nm (blue); series mostly up to 91.3 µM
Activity calls are given as the source filed them. The call rests on the fitted dose curve; in most records, active means well fitted curve in the direction sought with a large enough effect in the repeat runs; inconclusive means weak or mixed curves; inactive means flat fitted curve, though single readings scatter.
Observation Type: fluorescence, % of fluorescent control

// known answers, use as guide
Molecule | fluorescence, % of fluorescent control
CO/N=C(/C(=O)N[C@@H]1C(=O)N2C(C(=O)O)=C(COC(N)=O)CS[C@H]12)c1ccco1 | inactive
C=CCc1ccccc1OCC(O)CNC(C)C (stereo not given) | inactive
C/C=C(/C(=C/C)c1ccc(O)cc1)c1ccc(O)cc1 | 0.115% [at 18.6 µM] (inactive)
CC(C)=CCC/C(C)=C/CC/C(C)=C/CCC(=O)OC/C=C(\C)CCC=C(C)C | inactive

Would you kindly look at the next entry?
Write down fluorescence, % of fluorescent control measured for item "COc1ccccc1N1CCN(CCCCNC(=O)c2ccc(-c3ccc(C(C)=O)cc3)cc2)CC1" inactive

###

Experiment: qHTS assay for identifying genotoxic compounds that show differential cytotoxicity against isogenic chicken DT40 cell lines with known DNA damage response pathways - Rev3 mutant cell line (AID 743014); further: nearly all actives have a fitted effect of over 55% in size
Conditions: chicken DT40 Rev3-/- viability, CellTiter-Glo, 40 h; series mostly up to 68.4 µM
Records with an inconclusive call do not appear. Calls of active or inactive are those of the source. Calls come from the whole dose curve; as a rule, active = well fitted cell-killing curve with a large enough effect in the repeat runs; inconclusive = weak or mixed curves, or effect the other way; inactive = no such curve, though single readings can be large or run the other way.
Tick one outcome: true for active, false for inactive

// below: answered molecules
Molecule | Label Value
CC[C@]1(O)C[C@H]2CN(CCc3c([nH]c4ccccc34)[C@@](C(=O)OC)(c3cc4c(cc3OC)N(C=O)[C@H]3[C@@](O)(C(=O)OC)[C@H](OC(C)=O)[C@]5(CC)C=CCN6CC[C@]43[C@@H]65)C2)C1 | true
NC(=O)c1ccncc1 | false
O=C1C(=O)c2ccccc2C(O)=C1C1CCC(c2ccc(Cl)cc2)CC1 (stereo not given) | false
O=C(CCc1ccc(O)cc1)c1c(O)cc(O)cc1O | true
O=C(O)CCC(=O)C(=O)O | false
N#CCc1ccc(Cl)cc1Cl | false

Look up the recorded call for "CC[N+](CC)(CCNC(=O)C(=O)NCC[N+](CC)(CC)Cc1ccccc1Cl)Cc1ccccc1Cl" in this test. false

Look up the recorded call for "O=c1c(O)c(-c2ccc(O)cc2)oc2cc(O)cc(O)c12" in this test. true

Look up the recorded call for "O=C(OC(=O)c1ccccc1)c1ccccc1" in this test. false

The origin of these recorded values is PubChem BioAssay (Tox21).
